- Experimental details: Inhibitor binding assay of SEQ ID NO 3 variants, Inhibitor 1, in Model B detergent
- Assay type: biochemical
- Applied conditions: in Model B relative to SEQ ID NO 3 comprising S173P + S175P + F180Y; relative Ki, IF>1.0 = lower Ki
Readout name: inhibitor 1 binding constant improvement factors (IF)
Lab note: record the figure alone, no unit after it.

S114A + S173P + S175P + F180Y: protease variant of SEQ ID NO 3 (protein, listed as Bacillus sp.) AVPSTQTPWGIKSIYNDQSITKTTGGSGIKVAVLDTGVYTSHLDLAGSAEQCKDFTQSNPLVDGSCTDRQGHGTHVAGTVLAHGGSNGQGVYGVAPQAKLWAYKVLGDNGSGYADDIAAAIRHVADEASRTGSKVVINMSLGSSAKDSLIASAVDYAYGKGVLIVAAAGNSGPGPNTIGYPGGLVNAVAVAALENVQQNGTYRVADFSSRGNPATAGDYIIQERDIEVSAPGASVESTWYTGGYNTISGTSMATPHVAGLAAKIWSANTSLSHSQLRTELQNRAKVYDIKGGIGAGTGDDYASGFGYPRVK	3.33

With those in mind, consider the next molecule.
Supply reported inhibitor 1 binding constant improvement factors (IF) belonging to this molecule: K146R + S173P + S175P + F180Y: protease variant of SEQ ID NO 3 (protein, listed as Bacillus sp.) AVPSTQTPWGIKSIYNDQSITKTTGGSGIKVAVLDTGVYTSHLDLAGSAEQCKDFTQSNPLVDGSCTDRQGHGTHVAGTVLAHGGSNGQGVYGVAPQAKLWAYKVLGDNGSGYSDDIAAAIRHVADEASRTGSKVVINMSLGSSARDSLIASAVDYAYGKGVLIVAAAGNSGPGPNTIGYPGGLVNAVAVAALENVQQNGTYRVADFSSRGNPATAGDYIIQERDIEVSAPGASVESTWYTGGYNTISGTSMATPHVAGLAAKIWSANTSLSHSQLRTELQNRAKVYDIKGGIGAGTGDDYASGFGYPRVK 1.31

Ref: patent US20170342349A1
